Test: TZMbI assay for cell safety (cell viability and growth, CytoTox Glo)
Conditions: human, TZMbI cells, 10 μM, Experiment 1A; read-out: % decrease in viability compared to 0.1% DMSO vehicle based on viable cell luminescence
# if measured cytotoxicity at 10 μM < 20%: True  # else: False

>>> group_label("COc1ccc(Br)cc1C1CC(=O)c2ccccc2O1 (stereo not drawn) [Compound 13b, 2-(5-Bromo-2-methoxyphenyl)chroman-4-one]")
"True"
>>> group_label("COc1ccc(Cl)cc1/C=C/C(=O)c1ccccc1O")
"False"
>>> group_label("COc1ccccc1/C=C/C(=O)c1ccccc1O")
"True"
>>> group_label("COc1cc(OC)c(/C=C/C(=O)c2ccccc2O)cc1Br")
"True"
>>> group_label("CCOc1ccc(Br)cc1-c1oc2ccccc2c(=O)c1O")
"True"
>>> group_label("CCOc1ccc(Cl)cc1-c1oc2ccccc2c(=O)c1O")
"False"
>>> group_label("COc1ccc(Cl)cc1-c1oc2ccccc2c(=O)c1O")
"False"
>>> group_label("COc1ccc(I)cc1-c1oc2ccccc2c(=O)c1O")
"True"
>>> group_label("COc1cc(OC)c(-c2oc3ccccc3c(=O)c2O)cc1Br")
"True"

The measured values listed here are drawn from patent US9629822B2.
